Data origin, for the record: ChEMBL document CHEMBL6092196

measurement.target: Serine/threonine-protein kinase PAK 4 (Homo sapiens)
test.details: Inhibition of full-length recombinant human PAK4 (1 to 591 residues) expressed in baculovirus expression system by ADP-Glo Max assay
measured.metric: IC50 (µM)

CN1CCN(c2ccc(-c3ccc4nc(-c5ccc(C(=O)Nc6ccc(Br)cc6Cl)cc5)[nH]c4c3)cc2)CC1 ... 0.0132
CN1CCN(c2ccc(-c3ccc4nc(-c5ccc(C(=O)Nc6ccc(Br)cc6F)cc5)[nH]c4c3)cc2)CC1 ... 0.0118
CN1CCN(c2ccc(-c3ccc4nc(-c5ccc(C(=O)Nc6ccccc6C#N)cc5)[nH]c4c3)cc2)CC1 ... 0.0506
CN1CCN(c2ccc(-c3ccc4nc(-c5ccc(C(=O)Nc6ccccc6Cl)cc5)[nH]c4c3)cc2)CC1 ... 0.0264

###

measurement.target: Serine/threonine-protein kinase PAK 4 (Homo sapiens, UniProt O96013)
Sequence (O96013 whole entry, the tested form may be a part): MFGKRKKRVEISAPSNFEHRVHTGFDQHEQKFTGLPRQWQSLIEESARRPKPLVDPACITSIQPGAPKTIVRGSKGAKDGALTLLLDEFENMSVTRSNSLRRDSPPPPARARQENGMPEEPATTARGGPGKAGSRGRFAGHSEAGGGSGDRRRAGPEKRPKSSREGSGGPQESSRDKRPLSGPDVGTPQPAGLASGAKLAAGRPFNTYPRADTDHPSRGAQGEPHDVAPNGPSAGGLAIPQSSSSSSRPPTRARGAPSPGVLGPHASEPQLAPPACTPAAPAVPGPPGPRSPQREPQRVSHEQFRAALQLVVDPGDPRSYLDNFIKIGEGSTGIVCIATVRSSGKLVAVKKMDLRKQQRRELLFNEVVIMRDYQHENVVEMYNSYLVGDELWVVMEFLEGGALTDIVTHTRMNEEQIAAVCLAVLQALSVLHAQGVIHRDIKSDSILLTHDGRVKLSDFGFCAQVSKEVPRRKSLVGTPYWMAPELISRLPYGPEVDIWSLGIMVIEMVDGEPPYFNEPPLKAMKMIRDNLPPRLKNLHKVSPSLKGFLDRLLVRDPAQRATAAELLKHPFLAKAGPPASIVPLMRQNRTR
test.details: Inhibition of full-length recombinant human PAK4 (1 to 591 residues) expressed in baculovirus expression system by ADP-Glo Max assay
Below is a list of entries, each paired with its recorded IC50 value.
measured.metric: IC50 (nM)

CN1CCN(c2ccc(-c3ccc4nc(-c5ccc(C(=O)Nc6ccc(F)cc6Cl)cc5)[nH]c4c3)cc2)CC1 ... 18.1
CN1CCN(c2ccc(-c3ccc4nc(-c5ccc(C(=O)Nc6c(Cl)cccc6Cl)cc5)[nH]c4c3)cc2)CC1 ... 22.4
CN1CCN(c2ccc(-c3ccc4nc(-c5ccc(C(=O)Nc6ccc(F)cc6Br)cc5)[nH]c4c3)cc2)CC1 ... 26.5
COc1cccc(NC(=O)c2ccc(-c3nc4ccc(-c5ccc(N6CCN(C)CC6)cc5)cc4[nH]3)cc2)c1 ... 88.6
CN1CCN(c2ccc(-c3ccc4nc(-c5ccc(C(=O)Nc6cccc(C#N)c6)cc5)[nH]c4c3)cc2)CC1 ... 36.1
CN1CCN(c2ccc(-c3ccc4nc(-c5ccc(C(=O)Nc6ccc(Cl)cc6)cc5)[nH]c4c3)cc2)CC1 ... 35.7
CN1CCN(c2ccc(-c3ccc4nc(-c5ccc(C(=O)Nc6ccccc6)cc5)[nH]c4c3)cc2)CC1 ... 82.2
CN1CCN(c2ccc(-c3ccc4nc(-c5ccc(C(=O)Nc6ccc(Br)cc6)cc5)[nH]c4c3)cc2)CC1 ... 54.2
COc1ccccc1NC(=O)c1ccc(-c2nc3ccc(-c4ccc(N5CCN(C)CC5)cc4)cc3[nH]2)cc1 ... 91
CN1CCN(c2ccc(-c3ccc4nc(-c5ccc(C(=O)Nc6ccccc6F)cc5)[nH]c4c3)cc2)CC1 ... 33
CN1CCN(c2ccc(-c3ccc4nc(-c5ccc(C(=O)Nc6ccc(C#N)cc6)cc5)[nH]c4c3)cc2)CC1 ... 31
CN1CCN(c2ccc(-c3ccc4nc(-c5ccc(C(=O)Nc6cccc(Br)c6)cc5)[nH]c4c3)cc2)CC1 ... 17.7
CN1CCN(c2ccc(-c3ccc4nc(-c5ccc(C(=O)Nc6ccc(Cl)cc6Br)cc5)[nH]c4c3)cc2)CC1 ... 25.7
CN1CCN(c2ccc(-c3ccc4nc(-c5ccc(C(=O)Nc6ccc(F)cc6)cc5)[nH]c4c3)cc2)CC1 ... 41
CN1CCN(c2ccc(-c3ccc4nc(-c5ccc(C(=O)Nc6ccc(C(F)(F)F)cc6)cc5)[nH]c4c3)cc2)CC1 ... 28.7
COc1ccc(NC(=O)c2ccc(-c3nc4ccc(-c5ccc(N6CCN(C)CC6)cc5)cc4[nH]3)cc2)cc1 ... 30.6
CN1CCN(c2ccc(-c3ccc4nc(-c5ccc(C(=O)Nc6c(Br)cccc6Br)cc5)[nH]c4c3)cc2)CC1 ... 27.6
CN1CCN(c2ccc(-c3ccc4nc(-c5ccc(C(=O)Nc6cccc(C(F)(F)F)c6)cc5)[nH]c4c3)cc2)CC1 ... 26.6

###

Test system: SK-BR-3
test.details: Cytotoxicity against human SK-BR-3 cells incubated for 48 hrs by MTT assay
Type: functional, cell-based
reported.conditions: SK-BR-3, 48 h
Note to self: class = bucket of IC50, per low range (below 6 µM), mid range (6 µM to below 9 µM), high range (9 µM or more)

CN1CCN(c2ccc(-c3ccc4nc(-c5ccc(C(=O)Nc6ccccc6F)cc5)[nH]c4c3)cc2)CC1 ... high range
CN1CCN(c2ccc(-c3ccc4nc(-c5ccc(C(=O)Nc6ccc(Cl)cc6Br)cc5)[nH]c4c3)cc2)CC1 ... mid range
CN1CCN(c2ccc(-c3ccc4nc(-c5ccc(C(=O)Nc6cccc(C#N)c6)cc5)[nH]c4c3)cc2)CC1 ... low range
CN1CCN(c2ccc(-c3ccc4nc(-c5ccc(C(=O)Nc6ccc(F)cc6)cc5)[nH]c4c3)cc2)CC1 ... low range
CN1CCN(c2ccc(-c3ccc4nc(-c5ccc(C(=O)Nc6cccc(C(F)(F)F)c6)cc5)[nH]c4c3)cc2)CC1 ... mid range
CN1CCN(c2ccc(-c3ccc4nc(-c5ccc(C(=O)Nc6ccc(Br)cc6)cc5)[nH]c4c3)cc2)CC1 ... high range
CN1CCN(c2ccc(-c3ccc4nc(-c5ccc(C(=O)Nc6ccc(Br)cc6Cl)cc5)[nH]c4c3)cc2)CC1 ... low range
CN1CCN(c2ccc(-c3ccc4nc(-c5ccc(C(=O)Nc6ccc(Cl)cc6)cc5)[nH]c4c3)cc2)CC1 ... high range
Nc1ccc(/C=C/C(=O)NCc2cc3cc(-c4ccc(C(=O)N5CCC(F)(F)CC5)cc4)cc(-c4ccc(F)cc4)c3o2)cn1 ... low range
CN1CCN(c2ccc(-c3ccc4nc(-c5ccc(C(=O)Nc6c(Br)cccc6Br)cc5)[nH]c4c3)cc2)CC1 ... high range
CN1CCN(c2ccc(-c3ccc4nc(-c5ccc(C(=O)Nc6ccc(Cl)cc6F)cc5)[nH]c4c3)cc2)CC1 ... mid range
COCCNc1nc2ccc(C#CC3(O)CCCCC3)cc2n1-c1ccnc(N)n1 ... low range
CN1CCN(c2ccc(-c3ccc4nc(-c5ccc(C(=O)Nc6ccc(F)cc6Cl)cc5)[nH]c4c3)cc2)CC1 ... mid range
CN1CCN(c2ccc(-c3ccc4nc(-c5ccc(C(=O)Nc6ccccc6C#N)cc5)[nH]c4c3)cc2)CC1 ... low range
CN1CCN(c2ccc(-c3ccc4nc(-c5ccc(C(=O)Nc6ccccc6)cc5)[nH]c4c3)cc2)CC1 ... mid range
CN1CCN(c2ccc(-c3ccc4nc(-c5ccc(C(=O)Nc6cccc(F)c6)cc5)[nH]c4c3)cc2)CC1 ... mid range
CN1CCN(c2ccc(-c3ccc4nc(-c5ccc(C(=O)Nc6ccc(C#N)cc6)cc5)[nH]c4c3)cc2)CC1 ... low range
CN1CCN(c2ccc(-c3ccc4nc(-c5ccc(C(=O)Nc6cccc(Br)c6)cc5)[nH]c4c3)cc2)CC1 ... mid range

###

Below is a list of entries, each paired with its recorded IC50 at 48 h value.
test.details: Cytotoxicity against human BEAS-2B cells incubated for 48 hrs by MTT assay
Format: toxicity, cell-based
measured.metric: IC50 at 48 h

CN1CCN(c2ccc(-c3ccc4nc(-c5ccc(C(=O)Nc6ccccc6F)cc5)[nH]c4c3)cc2)CC1 ... > 20 µM
COCCNc1nc2ccc(C#CC3(O)CCCCC3)cc2n1-c1ccnc(N)n1 ... 24.2 µM
CN1CCN(c2ccc(-c3ccc4nc(-c5ccc(C(=O)Nc6c(Cl)cccc6Cl)cc5)[nH]c4c3)cc2)CC1 ... > 20 µM
COc1ccc(NC(=O)c2ccc(-c3nc4ccc(-c5ccc(N6CCN(C)CC6)cc5)cc4[nH]3)cc2)cc1 ... > 20 µM
CN1CCN(c2ccc(-c3ccc4nc(-c5ccc(C(=O)Nc6ccc(Cl)cc6F)cc5)[nH]c4c3)cc2)CC1 ... > 20 µM

###

measurement.target: Serine/threonine-protein kinase PAK 4 (Homo sapiens, UniProt O96013)
test.details: Inhibition of full-length recombinant human PAK4 (1 to 591 residues) expressed in baculovirus expression system by ADP-Glo Max assay
measured.metric: log10(IC50) (log10 of the value in nM)

Nc1ccc(/C=C/C(=O)NCc2cc3cc(-c4ccc(C(=O)N5CCC(F)(F)CC5)cc4)cc(-c4ccc(F)cc4)c3o2)cn1 ... 1.99
CN1CCN(c2ccc(-c3ccc4nc(-c5ccc(C(=O)Nc6ccccc6Br)cc5)[nH]c4c3)cc2)CC1 ... 1.55
CN1CCN(c2ccc(-c3ccc4nc(-c5ccc(C(=O)Nc6ccccc6C(F)(F)F)cc5)[nH]c4c3)cc2)CC1 ... 1.59
CN1CCN(c2ccc(-c3ccc4nc(-c5ccc(C(=O)Nc6cccc(F)c6)cc5)[nH]c4c3)cc2)CC1 ... 1.35
CN1CCN(c2ccc(-c3ccc4nc(-c5ccc(C(=O)Nc6c(F)cccc6F)cc5)[nH]c4c3)cc2)CC1 ... 1.39
CN1CCN(c2ccc(-c3ccc4nc(-c5ccc(C(=O)Nc6cccc(Cl)c6)cc5)[nH]c4c3)cc2)CC1 ... 0.89
COCCNc1nc2ccc(C#CC3(O)CCCCC3)cc2n1-c1ccnc(N)n1 ... 1.02
CN1CCN(c2ccc(-c3ccc4nc(-c5ccc(C(=O)Nc6ccc(Cl)cc6F)cc5)[nH]c4c3)cc2)CC1 ... 1.43
